Sourced from the supplement of paper PMC8612539

minimum inhibitory concentration values by entry
Test system: Histophilus somni
Assay: minimum inhibitory concentration (MIC)
Settings: isolate (source animal id): 247
Report the figure in µg/mL without appending any unit label.

Record excerpt, results attached:
Request: Provide only the value of recorded minimum inhibitory concentration for NC[C@@H]1O[C@H](O[C@H]2[C@@H](O)[C@H](O[C@@H]3[C@@H](O)[C@H](N)C[C@H](N)[C@H]3O[C@H]3O[C@H](CN)[C@@H](O)[C@H](O)[C@H]3N)O[C@@H]2CO)[C@H](N)[C@@H](O)[C@@H]1O
Response: 32

Request: For CC[C@H]1OC(=O)C[C@@H](O)[C@H](C)[C@@H](O[C@@H]2O[C@H](C)[C@@H](O)[C@H](N(C)C)[C@H]2O)[C@@H](CCN2C[C@H](C)C[C@H](C)C2)C[C@@H](C)C(=O)/C=C/C(C)=C/[C@@H]1CO[C@@H]1O[C@H](C)[C@@H](O)[C@@H](OC)[C@H]1OC , write its minimum inhibitory concentration.
Response: 16

---
Request: Tell me measured minimum inhibitory concentration for CC[C@H]1OC(=O)C[C@@H](O)[C@H](C)[C@@H](O[C@@H]2O[C@H](C)[C@@H](O)[C@H](N(C)C)[C@H]2O)[C@@H](CCN2CCCCC2)C[C@@H](C)C(=O)/C=C/C(C)=C/[C@@H]1CN1CCCCC1 please.
Response: 2
